test system: ATP; test: switch fluorescence ratio, 500 uM ATP over buffer (Cy3 cluster intensity, sum of 5 cycles each) (fold (ratio)); higher = stronger signal-on switching upon ATP binding; sequences stand for … in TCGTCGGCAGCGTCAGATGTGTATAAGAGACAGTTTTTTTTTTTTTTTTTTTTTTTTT…TC; conditions: aptamer strand: ATP DNA aptamer (quencher-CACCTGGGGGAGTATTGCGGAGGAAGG + anchor), 100 nM annealed; ATP concentration: 500 uM;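 note: ATP exposure 15 min at 22 °C before imaging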
parameter.measured: switch fluorescence ratio

>>> reading("CAGGTATGT")
0.991
>>> reading("ATTGTCTCTA")
0.999
>>> reading("ACTTTGTCAT")
0.981
>>> reading("GTTGGGGGAT")
0.986
>>> reading("GGCCGAGGTC")
1.02
>>> reading("GAAAAACTGT")
1.06
>>> reading("GTTATGCGCG")
1.03
>>> reading("TGCGGTAGAA")
1.01
>>> reading("TCGGGATAGT")
1.03
>>> reading("CTGTCCTTTT")
1.11
>>> reading("TGCACCAGG")
3.29

* * *

system: ATP; assay: switch fluorescence ratio, 500 uM ATP over buffer (Cy3 cluster intensity, sum of 5 cycles each) (fold (ratio)); higher = stronger signal-on switching upon ATP binding; sequences stand for … in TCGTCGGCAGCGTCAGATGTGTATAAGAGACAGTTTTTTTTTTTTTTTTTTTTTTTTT…TC; settings: aptamer strand: ATP DNA aptamer (quencher-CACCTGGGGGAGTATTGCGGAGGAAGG + anchor), 100 nM annealed; ATP concentration: 500 uM;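 note: ATP exposure 15 min at 22 °C before imaging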
switch fluorescence ratio: recorded values
parameter.measured: switch fluorescence ratio

>>> reading("GATTGATTTA")
1
>>> reading("CTTTTTGGGA")
0.987
>>> reading("GTTCATGGTT")
1.01
>>> reading("AAACAATGTG")
0.972
>>> reading("AGGGGCACAA")
1.01
>>> reading("GGCTGGCATT")
1.11
>>> reading("CGTTTACCTG")
0.983
>>> reading("ACGGGACGGC")
1.04
>>> reading("GCTATTCGAA")
1.01
>>> reading("GCAGCAATTG")
3.03

* * *

system: ATP; assay: switch fluorescence ratio, 500 uM ATP over buffer (Cy3 cluster intensity, sum of 5 cycles each) (fold (ratio)); higher = stronger signal-on switching upon ATP binding; sequences stand for … in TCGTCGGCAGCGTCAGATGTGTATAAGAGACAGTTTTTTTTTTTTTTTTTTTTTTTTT…TC; conditions: aptamer strand: ATP DNA aptamer (quencher-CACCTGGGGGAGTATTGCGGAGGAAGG + anchor), 100 nM annealed; ATP concentration: 500 uM;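 note: ATP exposure 15 min at 22 °C before imaging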
parameter.measured: switch fluorescence ratio

>>> reading("GGAGGCCATG")
0.967
>>> reading("AGCACGGCAG")
0.991
>>> reading("CGTCCGACTT")
1.2
>>> reading("GATGAGGTGC")
1.07
>>> reading("GTGTACTTAC")
1.2
>>> reading("GGCTTGGGAA")
0.968
>>> reading("AGGTAGTTC")
0.96
>>> reading("TTACAGGGCT")
1.04
>>> reading("ATAACGCTCG")
1
>>> reading("TAAAAATTCA")
1.01
>>> reading("GAGGTGAGTT")
0.983

* * *

tested on: ATP; assay: switch fluorescence ratio, 500 uM ATP over buffer (Cy3 cluster intensity, sum of 5 cycles each) (fold (ratio)); higher = stronger signal-on switching upon ATP binding; sequences stand for … in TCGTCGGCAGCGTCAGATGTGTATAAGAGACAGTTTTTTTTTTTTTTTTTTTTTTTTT…TC; conditions: aptamer strand: ATP DNA aptamer (quencher-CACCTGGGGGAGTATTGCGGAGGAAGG + anchor), 100 nM annealed; ATP concentration: 500 uM;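 note: ATP exposure 15 min at 22 °C before imaging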
The entries below are paired with their reported switch fluorescence ratio.
parameter.measured: switch fluorescence ratio

>>> reading("TTTAGCTGCC")
1.16
>>> reading("TGGAAAAGGT")
1.01
>>> reading("GGGGATGAGC")
1.04
>>> reading("TTTTGCACTT")
1.02
>>> reading("TGAATTTAT")
0.998
>>> reading("ATGTGTGAGG")
1.01
>>> reading("CAAACGCCGA")
1.1
>>> reading("ACATGTGTTT")
1.03
>>> reading("GCTCTACTGG")
1.02
>>> reading("TCGAGAGGGA")
1
>>> reading("ATCGCATGGG")
1.03
>>> reading("ATGATTTCTA")
0.986
>>> reading("AACGGTAAAT")
1.01
>>> reading("GGGGCTCATT")
0.983
>>> reading("TCGTTGGTTG")
1.02
>>> reading("GGGGGGTATT")
0.987
>>> reading("AATTTGCCGT")
1.04
>>> reading("GTCTTTTTAA")
1.03
>>> reading("ACATTAGGGA")
1.04
>>> reading("ACGGGGTTGG")
1.03
>>> reading("CGGGGTGGGA")
1.01
>>> reading("ACTACGTCGG")
1.08
>>> reading("AGAAAAATTT")
1.19
>>> reading("CGCGTATGTT")
0.985
>>> reading("AGGGTAGGGC")
1.02
>>> reading("AAAAAATTAT")
1.03
>>> reading("CAAAGGGTTA")
0.991
>>> reading("TTGGAAATTA")
1.04
>>> reading("TTTCGCTC")
1.06
>>> reading("TTCGGAATTT")
0.988
>>> reading("AGTATCTGGG")
0.989
>>> reading("TTATTGGGCA")
1.04
>>> reading("AGTAGAAATG")
0.991
>>> reading("ACAGTTAGGG")
1.02
>>> reading("AAACGGGGTA")
1.01
>>> reading("TTAATTGACA")
1.06
>>> reading("TTCTTCGGAT")
1.09
>>> reading("ATGGTCGGGG")
0.995
>>> reading("ATTATATCGG")
0.998
>>> reading("CCGGGGAGTC")
1.04
>>> reading("TACTGTTCGA")
1.05
>>> reading("AAGTGCATGC")
1.01
>>> reading("GTTACCCAGT")
1.05

* * *

Listed next: entries and their corresponding switch fluorescence ratio.
system: ATP; experiment: switch fluorescence ratio, 500 uM ATP over buffer (Cy3 cluster intensity, sum of 5 cycles each) (fold (ratio)); higher = stronger signal-on switching upon ATP binding; sequences stand for … in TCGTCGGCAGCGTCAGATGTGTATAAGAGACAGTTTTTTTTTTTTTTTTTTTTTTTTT…TC; conditions: aptamer strand: ATP DNA aptamer (quencher-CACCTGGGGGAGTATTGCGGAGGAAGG + anchor), 100 nM annealed; ATP concentration: 500 uM;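 note: ATP exposure 15 min at 22 °C before imaging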
parameter.measured: switch fluorescence ratio

>>> reading("ATACTCATAT")
1.01
>>> reading("TTTGATCTAT")
0.989
>>> reading("GTTAATATAG")
0.992
>>> reading("GCATTATATG")
1
>>> reading("ATGATGTGGG")
1.01
>>> reading("CCAATTTTAC")
1.39
>>> reading("AAACGGGGGG")
0.99
>>> reading("CGGCAAAGTA")
0.972
>>> reading("TGGGATCGCC")
1.02
>>> reading("GCTGAAAGGA")
0.999
>>> reading("ACGGAAGGGA")
0.991
>>> reading("GGGCTTTTTC")
1.02
>>> reading("AATACGTGGA")
1.03
>>> reading("TTGGTTACGT")
1
>>> reading("CCAGCACCTC")
1.45
>>> reading("GCTTTAATTT")
1.07
>>> reading("GTACTTTCGG")
0.98
>>> reading("TATAGTGAGG")
1.06
>>> reading("TCCGCTTGA")
1.58
>>> reading("TTACGCCCTT")
1.11
>>> reading("TTGCTACATA")
1.07

* * *

test system: ATP; test: switch fluorescence ratio, 500 uM ATP over buffer (Cy3 cluster intensity, sum of 5 cycles each) (fold (ratio)); higher = stronger signal-on switching upon ATP binding; sequences stand for … in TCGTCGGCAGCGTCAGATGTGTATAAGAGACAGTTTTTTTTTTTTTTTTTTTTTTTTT…TC; conditions: aptamer strand: ATP DNA aptamer (quencher-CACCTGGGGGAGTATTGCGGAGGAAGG + anchor), 100 nM annealed; ATP concentration: 500 uM;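 note: ATP exposure 15 min at 22 °C before imaging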
parameter.measured: switch fluorescence ratio

>>> reading("CTGTCTGAGT")
0.963
>>> reading("GCAGACCTAT")
0.989
>>> reading("ATAGAAAGGG")
1.02
>>> reading("TTGTTGCAGC")
1.02
>>> reading("CAGGCGACGG")
1.01
>>> reading("TGACAGGATT")
0.995
>>> reading("TAAATATGTG")
0.986
>>> reading("GAATGGTGGG")
0.988
>>> reading("AAGTTTTCGC")
0.979
>>> reading("GTGTTATCAC")
0.984
>>> reading("AGTACGGGGG")
0.992
>>> reading("AGGGAAAAAC")
2.45
>>> reading("CGTTAGATTG")
0.998
>>> reading("TCCTGGGTGT")
2.23
>>> reading("TGCGCAGCGG")
1.01
>>> reading("TTGGGGTATT")
1.01
>>> reading("TTTCAAAAGA")
1
>>> reading("TGAACGACGG")
1.02
>>> reading("AGTTATTGAG")
0.999
>>> reading("GGGGACTTAG")
0.985
>>> reading("ATTTTCTCCG")
1.43
>>> reading("AACGACTATG")
1.05
>>> reading("GCGTTATGTG")
1.02
>>> reading("CGTCCGAAGG")
1.03
>>> reading("CTGGGAGCAC")
1.89
>>> reading("CAAAAGGGAG")
1.04
>>> reading("ATAGGTAGGC")
1.05
>>> reading("TATCAATTCG")
0.997
>>> reading("TACTTGAGGG")
1.01
>>> reading("TGGGGTCTCT")
0.985
>>> reading("TTTCAGGGGT")
1.86
>>> reading("GAAGAACGAA")
1.02
>>> reading("ATGGGGAGGC")
1.05
>>> reading("TCCTAGGGGT")
2.44
>>> reading("TATGGACGTT")
1.03
>>> reading("ACTCATGATG")
0.99
>>> reading("CAGTAAAAGT")
0.983
>>> reading("GATTGCCGTG")
1.03
>>> reading("AGGAAGCAGT")
1.02
>>> reading("AAATAGAGTT")
0.998
>>> reading("AGAGGGTGAC")
1.01
>>> reading("GGTTTCTCTT")
1
>>> reading("CGATGCTCTG")
1.01
